Measurement Description: Drug-drug interaction (DDI) pharmacokinetic study of rucaparib with or without myricetin in rats
Applied Conditions: male, Sprague-Dawley, rat, in vivo, po, 20 mg/kg
Measure Name: AUC(0-inf)
Respond with a number, then the unit of measure.

# molecule CNCc1ccc(-c2[nH]c3cc(F)cc4c3c2CCNC4=O)cc1 ; its AUC(0-inf) = 1320 ng·h/mL

---

Measurement Description: Drug-drug interaction (DDI) pharmacokinetic study of rucaparib with or without myricetin in rats
Applied Conditions: male, Sprague-Dawley, rat, in vivo, po, 20 mg/kg
Measure Name: Tmax (h)
# value in h; strip the unit string

# molecule CNCc1ccc(-c2[nH]c3cc(F)cc4c3c2CCNC4=O)cc1 [Rucaparib] ; its Tmax = 4.25

---

Measurement Description: in vivo
Applied Conditions: male, Sprague-Dawley, rat, in vivo, po, 20 mg/kg
Measure Name: half-life (h)
# value in h; strip the unit string

# molecule CNCc1ccc(-c2[nH]c3cc(F)cc4c3c2CCNC4=O)cc1 ; its half-life = 10.9
